- Tested on: THRa:RXRa (NR concentration 90 nM, RXRa partner concentration 90 nM)
- assay overview: PBM binding z-score (relative to random genomic background probes); higher = stronger binding; sequences stand for … in GC…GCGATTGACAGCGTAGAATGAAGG
Threshold check on PBM binding z-score: at or above 1 gives MET, strictly below gives NOT MET.

- chain: "CCTTACGGGTCTCTGACAGGTTATAGCATTTGGA"
  measured on: "THRa:RXRa (NR concentration 90 nM, RXRa partner concentration 90 nM)"
  classification: "NOT MET"
- chain: "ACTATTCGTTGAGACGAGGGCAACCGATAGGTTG"
  measured on: "THRa:RXRa (NR concentration 90 nM, RXRa partner concentration 90 nM)"
  classification: "MET"
- chain: "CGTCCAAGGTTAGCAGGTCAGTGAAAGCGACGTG"
  measured on: "THRa:RXRa (NR concentration 90 nM, RXRa partner concentration 90 nM)"
  classification: "MET"
- chain: "TCTTGTACATCAGCAGGTTAAGAAAGCTGGCCAA"
  measured on: "THRa:RXRa (NR concentration 90 nM, RXRa partner concentration 90 nM)"
  classification: "NOT MET"
- chain: "GCGACTGGGGGAAAGCAGGTTACCATAAGGTTGG"
  measured on: "THRa:RXRa (NR concentration 90 nM, RXRa partner concentration 90 nM)"
  classification: "MET"
- chain: "CCTAGCAGGCCAGGGTCACTCTAGCATTTCGCTT"
  measured on: "THRa:RXRa (NR concentration 90 nM, RXRa partner concentration 90 nM)"
  classification: "MET"
- chain: "AATACACGGTCATCGTAGGCCAGAGTACGCACAG"
  measured on: "THRa:RXRa (NR concentration 90 nM, RXRa partner concentration 90 nM)"
  classification: "MET"
- chain: "GCTTGTAGATCAAGGTTAAGAAGGACTAAGCTAA"
  measured on: "THRa:RXRa (NR concentration 90 nM, RXRa partner concentration 90 nM)"
  classification: "MET"
- chain: "ACTATTAGTTGTGACGAGGGCAACCGATAGGTTG"
  measured on: "THRa:RXRa (NR concentration 90 nM, RXRa partner concentration 90 nM)"
  classification: "MET"
- chain: "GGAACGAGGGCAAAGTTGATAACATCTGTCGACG"
  measured on: "THRa:RXRa (NR concentration 90 nM, RXRa partner concentration 90 nM)"
  classification: "MET"
- chain: "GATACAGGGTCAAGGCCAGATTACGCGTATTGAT"
  measured on: "THRa:RXRa (NR concentration 90 nM, RXRa partner concentration 90 nM)"
  classification: "MET"
- chain: "ATCGCAAGGTCGAAGGTGAGTATACCCACCCGAA"
  measured on: "THRa:RXRa (NR concentration 90 nM, RXRa partner concentration 90 nM)"
  classification: "MET"
- chain: "GCGACTGGGGCATCAGCAGGTTAACATAACTTAA"
  measured on: "THRa:RXRa (NR concentration 90 nM, RXRa partner concentration 90 nM)"
  classification: "MET"
- chain: "AGTCAAAGTTCAGGACGAGGTAGCGTAAAGCACG"
  measured on: "THRa:RXRa (NR concentration 90 nM, RXRa partner concentration 90 nM)"
  classification: "MET"
- chain: "GCGACTGGGGCATCAGCACGTTACCATAACTTAA"
  measured on: "THRa:RXRa (NR concentration 90 nM, RXRa partner concentration 90 nM)"
  classification: "NOT MET"
- chain: "TCGACTAGGTTAGGGGCATTCAGAATGGCGTCGA"
  measured on: "THRa:RXRa (NR concentration 90 nM, RXRa partner concentration 90 nM)"
  classification: "MET"
- chain: "ACTCGGAGAACAAAGGTCAGAGCTACGCCAGTGA"
  measured on: "THRa:RXRa (NR concentration 90 nM, RXRa partner concentration 90 nM)"
  classification: "MET"
- chain: "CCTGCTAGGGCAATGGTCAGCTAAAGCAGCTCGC"
  measured on: "THRa:RXRa (NR concentration 90 nM, RXRa partner concentration 90 nM)"
  classification: "NOT MET"
- chain: "TCATATAGGTACAGGTGAAAGTCGAACGATATGA"
  measured on: "THRa:RXRa (NR concentration 90 nM, RXRa partner concentration 90 nM)"
  classification: "NOT MET"
- chain: "ATCTCTAGGTAAAGATAGTTAAGTGAATGCAAAT"
  measured on: "THRa:RXRa (NR concentration 90 nM, RXRa partner concentration 90 nM)"
  classification: "NOT MET"
- chain: "ACTAGCAGGCCAAGGGTCACTAAAGATTAGTCCG"
  measured on: "THRa:RXRa (NR concentration 90 nM, RXRa partner concentration 90 nM)"
  classification: "MET"
- chain: "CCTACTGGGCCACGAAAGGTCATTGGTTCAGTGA"
  measured on: "THRa:RXRa (NR concentration 90 nM, RXRa partner concentration 90 nM)"
  classification: "MET"
- chain: "CGTCCAAGGTCAGAGGGGTCAGTGAATGCCGAGT"
  measured on: "THRa:RXRa (NR concentration 90 nM, RXRa partner concentration 90 nM)"
  classification: "MET"
- chain: "GGAACGAGGGCAAAGTTGATATCATCTGTCGACG"
  measured on: "THRa:RXRa (NR concentration 90 nM, RXRa partner concentration 90 nM)"
  classification: "MET"
- chain: "TAGCCTTGGTCATTGGGCCAGTATAGTACGCATC"
  measured on: "THRa:RXRa (NR concentration 90 nM, RXRa partner concentration 90 nM)"
  classification: "NOT MET"
- chain: "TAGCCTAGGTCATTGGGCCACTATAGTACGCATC"
  measured on: "THRa:RXRa (NR concentration 90 nM, RXRa partner concentration 90 nM)"
  classification: "MET"
- chain: "GCAGGCAGGTGAAACGCAGGTAACTCAGGGTGGC"
  measured on: "THRa:RXRa (NR concentration 90 nM, RXRa partner concentration 90 nM)"
  classification: "MET"
- chain: "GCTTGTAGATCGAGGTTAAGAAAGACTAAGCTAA"
  measured on: "THRa:RXRa (NR concentration 90 nM, RXRa partner concentration 90 nM)"
  classification: "MET"
- chain: "ATCTCTAGGTAAAAAGTTCAGTGAAAGAGAGGAC"
  measured on: "THRa:RXRa (NR concentration 90 nM, RXRa partner concentration 90 nM)"
  classification: "MET"
- chain: "CCAATTAGTTGACCATAAGGGCAACCGAAGCTCG"
  measured on: "THRa:RXRa (NR concentration 90 nM, RXRa partner concentration 90 nM)"
  classification: "MET"
- chain: "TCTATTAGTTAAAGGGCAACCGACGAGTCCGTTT"
  measured on: "THRa:RXRa (NR concentration 90 nM, RXRa partner concentration 90 nM)"
  classification: "NOT MET"
- chain: "CGTACTGGGCCATTCAGAGGTCATTGATCATATG"
  measured on: "THRa:RXRa (NR concentration 90 nM, RXRa partner concentration 90 nM)"
  classification: "MET"
- chain: "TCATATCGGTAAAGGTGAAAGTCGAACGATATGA"
  measured on: "THRa:RXRa (NR concentration 90 nM, RXRa partner concentration 90 nM)"
  classification: "MET"
- chain: "CGTAAAAGTTCAACTAAGGTAACGTAAAGCACGC"
  measured on: "THRa:RXRa (NR concentration 90 nM, RXRa partner concentration 90 nM)"
  classification: "MET"
- chain: "CTCGAAAGGTCGTGCTGAGGTGAGTATACCAAAC"
  measured on: "THRa:RXRa (NR concentration 90 nM, RXRa partner concentration 90 nM)"
  classification: "MET"
- chain: "CGAAGTAGGTCATTGACAGGACAGTGAATAGTAA"
  measured on: "THRa:RXRa (NR concentration 90 nM, RXRa partner concentration 90 nM)"
  classification: "MET"
- chain: "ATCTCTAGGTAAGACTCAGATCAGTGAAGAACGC"
  measured on: "THRa:RXRa (NR concentration 90 nM, RXRa partner concentration 90 nM)"
  classification: "NOT MET"
- chain: "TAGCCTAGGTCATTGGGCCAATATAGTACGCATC"
  measured on: "THRa:RXRa (NR concentration 90 nM, RXRa partner concentration 90 nM)"
  classification: "MET"
- chain: "TCTGGTAGATCAACAGGAGGTTAAGAAAGATCGA"
  measured on: "THRa:RXRa (NR concentration 90 nM, RXRa partner concentration 90 nM)"
  classification: "NOT MET"
- chain: "AGAACGAGCGCAATGAGTTGATAGCACGGGTGGC"
  measured on: "THRa:RXRa (NR concentration 90 nM, RXRa partner concentration 90 nM)"
  classification: "NOT MET"
- chain: "TCGAGTAGGTTACCAGTGGGGCATTCAGCTTTCT"
  measured on: "THRa:RXRa (NR concentration 90 nM, RXRa partner concentration 90 nM)"
  classification: "NOT MET"
- chain: "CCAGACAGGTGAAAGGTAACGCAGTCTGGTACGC"
  measured on: "THRa:RXRa (NR concentration 90 nM, RXRa partner concentration 90 nM)"
  classification: "MET"
- chain: "ACTTACGGGTCAACGAGGTTATAGTACGCGTATA"
  measured on: "THRa:RXRa (NR concentration 90 nM, RXRa partner concentration 90 nM)"
  classification: "MET"
- chain: "TTACCAAGGTGGAGGTCGTTGATCCCTCTGTAGA"
  measured on: "THRa:RXRa (NR concentration 90 nM, RXRa partner concentration 90 nM)"
  classification: "MET"
- chain: "CGTAGTTGGTCAAGGTCACACACGCTATAGGTAC"
  measured on: "THRa:RXRa (NR concentration 90 nM, RXRa partner concentration 90 nM)"
  classification: "MET"
- chain: "TCATATAGGTCAATGCTAGGTGAAAGTCCGATCT"
  measured on: "THRa:RXRa (NR concentration 90 nM, RXRa partner concentration 90 nM)"
  classification: "MET"
- chain: "CCTTACGGGTCACAAGGTTATAGCACGACGAGCG"
  measured on: "THRa:RXRa (NR concentration 90 nM, RXRa partner concentration 90 nM)"
  classification: "MET"
- chain: "AGAATGAGGTTAAGATCAGGGACACAGAATACAT"
  measured on: "THRa:RXRa (NR concentration 90 nM, RXRa partner concentration 90 nM)"
  classification: "MET"
- chain: "TCTGCTAGGTCAACGATGGTCAGCTAGTCTGCTA"
  measured on: "THRa:RXRa (NR concentration 90 nM, RXRa partner concentration 90 nM)"
  classification: "MET"
- chain: "TCATATAGGTAAAAGGTGGAAGTCGGTGTGGTAA"
  measured on: "THRa:RXRa (NR concentration 90 nM, RXRa partner concentration 90 nM)"
  classification: "NOT MET"
- chain: "TCGAGTAGGTTAGACGGGGCATTCAGCCAACATA"
  measured on: "THRa:RXRa (NR concentration 90 nM, RXRa partner concentration 90 nM)"
  classification: "NOT MET"
